# TEST_SYSTEM: LDB3, O75112
# Sequence (O75112 1-94): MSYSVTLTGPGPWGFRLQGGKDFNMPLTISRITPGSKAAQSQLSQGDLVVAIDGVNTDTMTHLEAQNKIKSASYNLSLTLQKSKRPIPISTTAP
# PROTOCOL_SUMMARY: holdup assay
# Design: key: below the threshold = too weak to quantify, mostly under pKd 3.1 to 4
# DETAILS: plain residues with an end cap or a label only (N-terminal biotin on a linker: ahx)
VALUE_KIND: pKd

For orientation, consider the following solved cases.
BINDER: KEYDDELTFF [USH1C, Q9Y6N9]
pKd: below the threshold
//
BINDER: AKPQPVDSWV [ARVCF, O00192]
pKd: below the threshold
//
BINDER: KDECVIATEV [DLL1, O00548]
pKd: below the threshold
//
BINDER: SKKNELFSNL [NHERF1, O14745]
pKd: below the threshold
//
BINDER: SAPATLSSRA [PDLIM2, Q96JY6]
pKd: below the threshold

Supply measured pKd of HSATSVHTSV [MTMR1, Q13613] in your reply. below the threshold

Look up and report measured pKd for this entry: YNSFLSVTTV [PDZRN3, Q9UPQ7] below the threshold

Specify pKd for PKMKLNETSF [SHKBP1, Q8TBC3] and stop. below the threshold

Note down pKd recorded for ADENEQVSAV [RAPGEF6, Q8TEU7] below the threshold

Return pKd for the following binder: VNENQKEYFF [CNTNAP4, Q9C0A0] below the threshold
